Sourced from patent US20220024982A1

Experimental target: T1, MT1-MMP Hemopexin domain (PEX) (UniProt P50281 319-511)
T1 construct: domain: Hemopexin domain (PEX); Target of the fluorescence polarisation assays; also called hemopexin of MT1-MMP; MMP14
Method summary: FP competition vs tracer 17-69-07-N041
Text: Here, a pre-formed complex of PEX with the fluorescent PEX-binding tracer is titrated with free, non-fluoresceinated bicyclic peptide. […] Dissociation of the complex can be measured quantitatively, and the Kd of the competitor (titrant) to the target protein determined. The advantage of the competition method is that the affinities of non-fluoresceinated bicyclic peptides can be determined accurately and rapidly. […]
Numbered stars: 1 amine (or outer) side, 2 acyl side, 3 side chain; on linkers, the order of the positions; unused ones are H or OH. Bridge positions count the residues as written; N and C are the ends. Ends that are not written are not given here. TATA = O=C(CC[*:1])N1CN(C(=O)CC[*:2])CN(C(=O)CC[*:3])C1
Measurement name: Kd

As a guide, the following entries are already answered.
> print(dat)
                                     binder  measurement.name    result
1  ACEEEFYPCGHPLYVCA (linker 2-9-16 via TATA) [17-126-01]                Kd  > 316 nM
2  ACVEEFYPCDHPLYSCA (linker 2-9-16 via TATA) [17-126-03]                Kd  > 430 nM

Qu. Quick one: Kd for ACEEQFYPCTHALYTCA (linker 2-9-16 via TATA) [17-126-02] ?
Ans. > 282 nM
